Numbers sourced from paper PMC5350173.

Procedure summary: Plasma concentration of infused peptides by radioimmunoassay
Experimental conditions: human, plasma, iv, 268 pmol/kg/h; SEM
No end group written: not given here.
Parameter measured: Cmax (nM)
The reply should contain only the number, in nM.

Q) Looking for the measured Cmax of SWKPRSQQPDAPLGTGANR [progastrin fragment 1‐19] , can you help?
A) 0.43
